Data provenance is ChEMBL document CHEMBL5537115.

Provide the recorded MIC for the entries that follow.
Test system: Streptococcus pyogenes
test.name: Antibacterial activity against erythromycin-resistant Streptococcus pyogenes 2 clinical isolate assessed as bacterial growth inhibition incubated for 20 hrs by CLSI based broth microdilution method
Assay type: functional
State the value with its unit after it.

For orientation, consider the following solved cases.
entry.smiles	MIC
C[n+]1cc(-c2ccccc2)cc(/C=C/c2ccccc2[N+](=O)[O-])c1-c1ccccc1.I	16 µg/mL
CN(C)c1ccc(/C=C/c2cc(-c3ccc(C(C)(C)C)cc3)[n+](C)cc2-c2ccccc2)cc1.[I-]	2 µg/mL
CC(C)c1ccc(/C=C/c2cc(-c3ccc(C(C)(C)C)cc3)[n+](C)cc2-c2ccccc2)cc1.[I-]	2 µg/mL
CN(C)c1ccc(/C=C/c2cc(-c3ccccc3)[n+](C)cc2-c2ccccc2)cc1.[I-]	8 µg/mL
COc1cc(/C=C/c2cc(-c3ccccc3)c[n+](C)c2-c2ccccc2)cc(OC)c1OC.[I-]	16 µg/mL
C[n+]1cc(-c2ccccc2)c(/C=C/c2ccc(Cl)c(Cl)c2)cc1-c1ccc(C(C)(C)C)cc1.[I-]	4 µg/mL

Quick batch: MIC for everything below.
1. C[n+]1cc(-c2ccccc2)c(/C=C/c2ccc(N)cc2)cc1-c1ccccc1.[I-]
2. Cc1ccc(/C=C/c2cc(-c3ccccc3)c[n+](C)c2-c2ccccc2)cc1.[I-]

1. 16 µg/mL
2. 4 µg/mL
